Molecular target: hGPR119 (Homo sapiens, UniProt Q8TDV5)
Construct: expressed in transfected cells; host or cells: CHO cells (CHO-hGPR119)
Sequence (Q8TDV5 1-335): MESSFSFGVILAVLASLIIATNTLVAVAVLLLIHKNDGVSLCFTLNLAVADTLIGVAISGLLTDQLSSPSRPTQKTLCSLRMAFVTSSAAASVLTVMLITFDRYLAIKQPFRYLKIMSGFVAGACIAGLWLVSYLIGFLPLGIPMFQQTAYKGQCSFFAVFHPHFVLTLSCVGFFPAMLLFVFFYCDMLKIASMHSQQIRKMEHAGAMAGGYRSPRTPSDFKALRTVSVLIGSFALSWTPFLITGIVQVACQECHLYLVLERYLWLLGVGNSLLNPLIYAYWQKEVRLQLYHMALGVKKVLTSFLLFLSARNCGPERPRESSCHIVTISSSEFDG
Assay: In vitro cyclic AMP assay (Cisbio HTRF) in CHO-hGPR119 cells
Type: cell-based
Details: cAMP, class symbols, legend not given
Protocol: cAMP measurements were done using Cisbio dynamic 2 HTRF kit according to the manufacturer's protocol. Briefly, CHO-hGPR119 cells were plated at a cell density of 5000 cells/well/5 μl into a white small volume 384 well plate. The final concentrations of IBMX and DMSO used were 1 mM and 0.5% respectively. […] HTRF was measured at 337 nm excitation and emission wavelengths of 665 nm and 620 nm on a microplate reader (Flurostar, BMG Labtech). […]
MEASUREMENT_KIND: EC50

Answer with the recorded EC50 of CC(C)c1noc(N2CCC([C@H](C)Oc3nn4cc(-c5cnc(S(C)(=O)=O)nc5)nc4s3)CC2)n1 only.
A++

Given CC(C)c1noc(N2CCC([C@@H](C)Oc3nn4cc(-c5ccc(S(C)(=O)=O)cc5)nc4s3)CC2)n1 , respond with its EC50.
A+

Entry CC(C)c1noc(N2CCC([C@H](C)Oc3nn4cc(-c5cnc(Cl)nc5)nc4s3)CC2)n1 needs its EC50 filled in; supply it.
A++

Could you please provide reported EC50 for CCCc1cnc(N2CCC([C@H](C)Oc3nn4cc(-c5ccc(S(C)(=O)=O)cc5)nc4s3)CC2)nc1 ? Thanks!
A++
